# Tested on: Chordin-like protein 2 (CHRDL2)
# test-name: CHRDL2 small-molecule binders, primary screen, biochemical, small-molecule microarray, 635 nm fluorescence (AID 1126);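 note: printed compound slides probed with Chrdl2 protein at 4 µg/mL for 1 h at 4 C; score merges 667 nm emission intensity with signal to noise over three replicate slides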
# condition-context: small-molecule microarray binding, fluorescence 635 nm; higher = more signal
observed-property: composite z-score
Just the number, please.

# example entries with known answers
compound: C[C@@H](ON=C1[C@H]2CCn3c(=O)n(-c4ccccc4)c(=O)n3[C@H]2[C@H](O)[C@@H]2O[C@H]12)c1cn([C@@H]2COC[C@H]2O)nn1
composite z-score: 0.534
//
compound: CC(CCN1CCc2nc(-c3ccccc3)c(-c3ccccc3)cc2C1)=NOC[C@@H](O)[C@H]1O[C@@H]2OC(C)(C)O[C@@H]2[C@H]1O
composite z-score: 0.507
//
compound: CCOC(=O)[C@H](CC(C)C)NC(=O)CCC1CC(OC(=O)NCc2cccc3ccccc23)CC2(CCCC(COC(=O)NCc3cccc(C(F)(F)F)c3)O2)O1 (some centres undefined)
composite z-score: 0.964
//
compound: CO[C@H]1COC(=O)CCC[C@@H](C)[C@H](OC)COC(=O)[C@@H](C)NC(=O)CC=C[C@@H]1C
composite z-score: 1.45
//
compound: CC(C)(C)N1C(=O)[C@H]2[C@H]3[C@H](O)[C@H](O)CC(=O)[C@@H]3CC[C@H]2C1=O
composite z-score: 0.265

Report composite z-score for COC(=O)CC=C[C@@H](C)[C@@H](C=NO[C@@H](C)c1cn([C@H](CO)Cc2ccccc2)nn1)NS(=O)(=O)c1ccc(C)cc1 please.
0.784

Same question, CC(C)CON=C1C[C@@H](O)[C@@H](O)[C@@H]2[C@@H]3C(=O)N(C(C)(C)C)C(=O)[C@@H]3CC[C@H]12 this time
0.297

Same question, CO[C@H]1COC(=O)[C@@H](C)COC(=O)[C@H](COCc2ccccc2)NC(=O)CC=C[C@H]1C this time
1.22

Same question, C=COC[C@@H]1CN2[C@@H](CC[C@@H](C)[C@@H]2c2ccc(Br)cc2)C(=O)O1 this time
0.407

---

# test-name: binders of probe aFGF10 on microarray, primary screen, stem cell growth factor project, biochemical, small-molecule microarray, fluorescence 635/667 (AID 1071);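 note: score merges 667 nm spot intensity and signal to noise from triplicate slides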
# condition-context: higher = more signal
Each item that follows carries a reported composite z-score.
Just the number, please.

molecule: COc1cccc([C@@H]2Oc3ccc(OC)cc3C(=O)[C@H]2O)c1
value-reported: 0.209
--
molecule: COc1ccc(C#C[C@@H]2C=C[C@H](OC(C)=O)[C@@H](COC(C)=O)O2)cc1
value-reported: 0.288
--
molecule: O=C(NN=C1C[C@@H](O)[C@@H](O)[C@@H]2[C@@H]3C(=O)N(C[C@@H]4CCCO4)C(=O)[C@@H]3CC[C@@H]12)OCc1ccccc1
value-reported: -0.522
--
molecule: COc1ccc(O[C@@H]2[C@H](O)CO[C@@H]2C=Cc2ccccc2)cc1
value-reported: 0.336
--
molecule: CO[C@@H]1COC(=O)[C@@H](C)COC(=O)[C@@H](C)NC(=O)CC=C[C@@H]1C
value-reported: 0.231

Report composite z-score for CO[C@H]1COC(=O)CC=C[C@H](C)[C@@H](OC)COC(=O)[C@@H](C)NC(=O)CC=C[C@@H]1C please.
0.0365

Same question, COC(=O)CC=C[C@@H](C)[C@@H](C=NOCC[C@@H]1C=C[C@H](OC(C)=O)[C@@H](COC(C)=O)O1)NS(=O)(=O)c1ccc(C)cc1 this time
-0.371
